- target-of-assay: T1, HLA-DQ2.5/omega 1 gliadin peptide complex on Ba/F3 cells (human; wheat)
- T1 construct: also called Ba/F3-HLA-DQ2.5/omega 1 gliadin peptide
- experimental-protocol: FACS
quantity-measured: FIG. 30 FACS value (IC17=0, DQN0139bb=100)
# output: bare number, no unit

Below, 5 binders whose answers are already recorded.
Exercise: Give its FIG. 30 FACS value (IC17=0, DQN0139bb=100) value. Item: DQN0235ee (antibody, human IgG1, kappa, V domains shown, also called DQN0235He; DQN0235Le) VH: QQQLEESGGGLVKPGGTLTLTCKAGIDFSTYYYMCWVRQAPGKRPEWIACIFDGDGSTYYASWVNGRFTISKASSTTVTLRMTSLTAADTATYFCARSAGGSSSFGYFNLWGPGTLVTVSS VL: AYDMTQTPSSVSAAVGGTVTIKCQASQSISSSYLAWYHQKPGQSPKLLIYSASTLASGVPSRFKGSGSGTEFTLTISDLACADAATYYCQSYYYFSSNAWHTFGGGTKVEIKR
Solution: 75.2

Exercise: // same read-out, input: DQN0282ff (antibody, human IgG1, kappa, V domains shown, also called DQN0282Hf; DQN0282Lf) VH: QSVEESGGRLVTPGTPLTLSCKASGFDFSIYYMSWVRQAPGKGLEWIGVINSGGGVTWYASWVKGRFTISKTSTTVDLKITSPTTEDTATYFCARLGDSNHYDLWGPGTLVTVSS VL: AYDMTQTPSSVSAAVGGTVTIKCQASETISSYLAWYQQKPGQRPQLLIYDASNLASGVPSRFKGSGSGTEFTLTISDLECADAATYYCQTHYYITSTTFGGGTKVEIKR
Solution: 7

Exercise: Repeat with DQN0223hh (antibody, human IgG1, kappa, V domains shown, also called DQN0223Lh) VH: QQQLEESGGGLVKPGGTLTLTCKASRIDFSTYYYICWVRQSPWKGLEWIACIYSGDGYTYYPSWAKGRFSISKTSSTTVTLQVTSLTAADTATYFCARSYGGSSASAYFTLWGPGTQVTVSS VL: AVVLTQTASPVSAPVGGTVTIKCQASQSIGSNLGWYQQKPGQPPKLLIYGASALASGVPSRFKGSGSGTQFTLTINDLECADAATYYCQGYYYSSSAEWHSFGGGTKVEIKR
Solution: 46

Exercise: Please do the same for DQN0225dd (antibody, human IgG1, kappa, V domains shown, also called DQN0225Hd; DQN0225Ld) VH: QSLEESGGGLVKPGGTLTLTCTASGFSFSSAYYMCWVRQAPGKGLEWIACIYVGSGSTYYASWAQGRCTISKASSTTVTLQMTSLTAADTATYFCARDPLIYYYYGELNLWGPGTLVTVSS VL: AVVLTQTASPVSAPVGGTVTIKCQASEDISSNLAWYQQKPGQRPKVLIYSASTLASGVSSQFKGSGSGTQFTLTISDLECADAATYYCQSYYDISSVTFGGGTKVEIKR as well.
Solution: 75.6

Exercise: Please answer likewise for DQN0370hh (antibody, human IgG1, kappa, V domains shown, also called DQN0370Lh) VH: QSLEESGGGLVKPGGPLTLTCTASGFSFSSAYYMCWVRQAPGKGLEWIACIYVGSGSTYYTSWAKGRFTISKVSSTTMTLQMTSLTAADTATYFCARDPLIYYYYGELNLWGPGTLVTVSS VL: AVVLTQTASPVSAPVGGTVTIKCQASEDIYSNLAWYQQKPGQRPKVLIYSASTLASGVSSRFKGSRSGTEYTLSITDLGCADAATYYCQAYYDIGGVTFGGGTKVEIKR
Solution: 73.7

---
Exercise: Sample DQN0324hh (antibody, human IgG1, kappa, V domains shown, also called DQN0324Lh) VH: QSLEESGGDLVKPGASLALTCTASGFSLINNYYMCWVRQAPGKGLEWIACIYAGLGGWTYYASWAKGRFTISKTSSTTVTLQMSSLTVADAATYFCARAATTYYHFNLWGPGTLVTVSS VL: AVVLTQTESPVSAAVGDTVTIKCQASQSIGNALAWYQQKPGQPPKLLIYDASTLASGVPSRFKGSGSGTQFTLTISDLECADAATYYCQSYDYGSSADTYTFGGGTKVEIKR — what was its FIG. 30 FACS value (IC17=0, DQN0139bb=100)?
Solution: 7.3

Exercise: Field entry: DQN0356bb (antibody, human IgG1, kappa, V domains shown, also called DQN0356Hb; DQN0356Lb) VH: QEQLVESGGGLVKPEGSLTLTCTASGFSFSSDYSVCWVRQAPGKGLEWIGCIYTGSDITYYASWAKGRFTISKTSSTTVTLQMTSLTAADTATWFCARSWNGYGGYADLWGPGTLVTVSS VL: AYDMAQTPASVEVAVGGTVTIKCQASQSIDNYLAWYQQKPGQPPKLLIYWASTLASGVSSRFKGSGSGTQFSLTISDLECADAATYYCQQYYSNSNVVNTFGGGTKVEIKR
Solution: 76
